dephosphorylated PDK1 (Homo sapiens (Human), UniProt O15530) measurements of pIC50, listed per entry.
Sequence (O15530 51-360): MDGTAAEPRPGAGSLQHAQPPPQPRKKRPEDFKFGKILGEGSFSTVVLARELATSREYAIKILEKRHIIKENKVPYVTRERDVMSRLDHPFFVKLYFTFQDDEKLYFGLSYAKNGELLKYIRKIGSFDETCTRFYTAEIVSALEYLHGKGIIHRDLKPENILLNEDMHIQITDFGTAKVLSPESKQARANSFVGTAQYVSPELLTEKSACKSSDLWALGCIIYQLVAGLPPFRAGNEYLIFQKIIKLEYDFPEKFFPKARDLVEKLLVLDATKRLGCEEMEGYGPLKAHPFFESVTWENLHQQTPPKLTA
pIC50: −log10 of the molar value.
ASSAY READOUT: pIC50

[[record]]
compound = "C[C@@H](NC(=O)c1cccn(Cc2ccc(F)c(F)c2)c1=O)c1nc(-c2c[nH]c3ncccc23)cs1 [Cpd 114]"
observed = "> 6.30"

[[record]]
compound = "O=C(NCc1ccc(-c2n[nH]c3ncccc23)s1)c1cccn(Cc2ccc(F)c(F)c2)c1=O [Cpd 7]"
observed = "> 6.30"

[[record]]
compound = "CC(C)n1c(=O)[nH]c2cc(OCCNC(=O)c3cccn(Cc4ccc(F)c(F)c4)c3=O)ccc21 [Cpd 280]"
observed = "> 6.30"

[[record]]
compound = "O=C(NCc1noc(-c2c[nH]c3ncccc23)n1)c1cc(Cl)cn(Cc2ccc(F)cc2)c1=O [Cpd 319]"
observed = "> 6.30"

[[record]]
compound = "NC(=O)C[C@@H](NC(=O)c1cccn(Cc2ccc(F)c(F)c2)c1=O)c1nnc(-c2c[nH]c3ncccc23)o1 [Cpd 289]"
observed = "> 6.30"

[[record]]
compound = "O=C(NCc1ccc(-c2c[nH]c3ncc(Cl)cc23)s1)c1cccn(Cc2ccc(F)c(F)c2)c1=O [Cpd 23]"
observed = "> 6.30"

[[record]]
compound = "O=C(NCc1cccc(-c2ccc3nccn3c2)c1)c1cccn(Cc2ccc(F)c(F)c2)c1=O [Cpd 9]"
observed = "> 6.30"

[[record]]
compound = "CC(C)[C@@H](COc1ccc2[nH]c(=O)[nH]c2c1)NC(=O)c1cccn(Cc2ccc(F)c(F)c2)c1=O [Cpd 320]"
observed = "> 6.30"

